Each recorded value in this set is attributed to ChEMBL document CHEMBL3797182.

# Test system: Plasmodium falciparum
# assay_procedure: Antimalarial activity against chloroquine-sensitive asexual blood stage of Plasmodium falciparum 3D7 infected in RBC after 72 hrs by SYBR Green assay
# Assay type: functional, organism-based
# condition: 3D7, 72 h
Would you kindly list pIC50 for each of these compounds?
On this scale, pIC50 is minus log10 of a concentration expressed in M (mol/L).

For the compound Cn1c(=O)n(-c2cccc(C(F)(F)F)c2)c2c3cc(-c4ccc(N)cc4)ccc3ncc21 , give its reported pIC50.
7.07

Please list pIC50 recorded for the compound N#Cc1ccc(-c2ccc3ncc4[nH]c(=O)n(-c5cccc(C(F)(F)F)c5)c4c3c2)cc1
5.59

Please indicate pIC50 recorded for Cn1c(=O)n(-c2cccc(C(F)(F)F)c2)c2c3ccccc3ncc21
4.77

// fetch pIC50 given entry O=c1[nH]c2cnc3ccc(-c4ccccc4)cc3c2n1-c1cccc(C(F)(F)F)c1
5.39

Consider the compound Cc1ccc(-c2ccc3ncc4[nH]c(=O)n(-c5cccc(C(F)(F)F)c5)c4c3c2)cc1 and give its recorded pIC50.
5.28

For the compound O=c1[nH]c2cnc3ccc(-c4cnc5ccccc5c4)cc3c2n1-c1cccc(C(F)(F)F)c1 , report pIC50.
4.81

Tell me measured pIC50 for Cc1ccc(-c2ccc3ncc4c(c3c2)n(-c2cccc(C(F)(F)F)c2)c(=O)n4C)cn1 please.
7.68

Given the compound Cn1c(=O)n(-c2cccc(C(F)(F)F)c2)c2c3cc(-c4cccnc4)ccc3ncc21 , write its reported pIC50.
7.02

Read the entry Cn1c(=O)n(-c2ccccc2)c2c3cc(-c4ccc(N)nc4)ccc3ncc21 and write its reported pIC50.
7.16

Query pIC50 for O=c1[nH]c2cnc3ccc(-c4ccc(O)cc4)cc3c2n1-c1cccc(C(F)(F)F)c1
6.11

Entry Nc1cccc(-c2ccc3ncc4[nH]c(=O)n(-c5cccc(C(F)(F)F)c5)c4c3c2)c1 needs its pIC50 filled in; supply it.
6.56

Output measured pIC50 for this item: Cn1c(=O)n(-c2cccc(C(F)(F)F)c2)c2c3cc(-c4ccncc4)ccc3ncc21
7.03

Determine from records and report pIC50 for O=c1[nH]c2cnc3ccc(-c4ccc(F)cc4)cc3c2n1-c1cccc(C(F)(F)F)c1
5.80

Fill in pIC50 for record Cn1c(=O)n(C2CC2)c2c3cc(-c4ccc(N)nc4)ccc3ncc21
5.94

Answer with the recorded pIC50 for the compound listed here: Cn1c(=O)n(-c2cccc(C(F)(F)F)c2)c2c3cc(-c4ccc(S(C)(=O)=O)cc4)ccc3ncc21
6.24

Return reported pIC50. Input compound: Cn1c(=O)n(-c2cccc(C(F)(F)F)c2)c2c3cc(-c4ccc(Cl)cc4)ccc3ncc21
5.76

Give recorded pIC50. Nc1ccc(-c2ccc3ncc4[nH]c(=O)n(-c5cccc(C(F)(F)F)c5)c4c3c2)cc1
6.55

Please list pIC50 recorded for the compound Nc1ncc(-c2ccc3ncc4[nH]c(=O)n(-c5cccc(C(F)(F)F)c5)c4c3c2)cn1
6.67

Supply recorded pIC50 for O=c1[nH]c2cnc3ccc(-c4ccc(O)nc4)cc3c2n1-c1cccc(C(F)(F)F)c1 here.
6.39

# return recorded pIC50 for input Nc1ccc(-c2ccc3ncc4[nH]c(=O)n(C5CCCCC5)c4c3c2)cn1
5.87
